Each recorded value in this set is attributed to the supplement of paper PMC9112550.

System: Escherichia coli TOP10;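 note: peptides expressed intracellularly from a pBAD plasmid library in pooled LB shake-flask culture, induced with 0.3% L-arabinose, DNA abundance read by NGS, three biological replicates, DESeq2 with apeglm shrinkage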
Assay: shrunken log2 fold change of peptide-encoding DNA abundance (4.5 h post-induction vs induction); higher = less antimicrobial activity (less host growth inhibition)
Conditions: time post-induction: 4.5 h; library: site-saturation at positions 5, 18, 19, 20
recorded-metric: shrunken log2 fold change

INPUT: Requested read-out: shrunken log2 fold change. Entry: RRIRRRPPRLPRPRPRPWLMPRP
OUTPUT: -0.185

INPUT: Requested read-out: shrunken log2 fold change. Entry: RRIRLRPPRLPRPRPRPVWRPRP
OUTPUT: 0.299

INPUT: Requested read-out: shrunken log2 fold change. Entry: RRIRGRPPRLPRPRPRPLLEPRP
OUTPUT: 1.39

INPUT: Requested read-out: shrunken log2 fold change. Entry: RRIRQRPPRLPRPRPRPAIDPRP
OUTPUT: 0.0942

INPUT: Requested read-out: shrunken log2 fold change. Entry: RRIRHRPPRLPRPRPRPSSAPRP
OUTPUT: -0.0336

INPUT: Requested read-out: shrunken log2 fold change. Entry: RRIRERPPRLPRPRPRPIIQPRP
OUTPUT: -0.386

INPUT: Requested read-out: shrunken log2 fold change. Entry: RRIRRRPPRLPRPRPRPQCIPRP
OUTPUT: -0.0103

INPUT: Requested read-out: shrunken log2 fold change. Entry: RRIRYRPPRLPRPRPRPMMTPRP
OUTPUT: -0.111

INPUT: Requested read-out: shrunken log2 fold change. Entry: RRIRERPPRLPRPRPRPTANPRP
OUTPUT: -0.154

INPUT: Requested read-out: shrunken log2 fold change. Entry: RRIRFRPPRLPRPRPRPVCLPRP
OUTPUT: -0.121

INPUT: Requested read-out: shrunken log2 fold change. Entry: RRIRYRPPRLPRPRPRPRFYPRP
OUTPUT: -0.45

INPUT: Requested read-out: shrunken log2 fold change. Entry: RRIRGRPPRLPRPRPRPHEYPRP
OUTPUT: -0.325

INPUT: Requested read-out: shrunken log2 fold change. Entry: RRIRTRPPRLPRPRPRPEDLPRP
OUTPUT: 0.0657

INPUT: Requested read-out: shrunken log2 fold change. Entry: RRIRNRPPRLPRPRPRPNLRPRP
OUTPUT: -0.325

INPUT: Requested read-out: shrunken log2 fold change. Entry: RRIRYRPPRLPRPRPRPFDLPRP
OUTPUT: -0.967

INPUT: Requested read-out: shrunken log2 fold change. Entry: RRIRLRPPRLPRPRPRPDWNPRP
OUTPUT: -0.689

INPUT: Requested read-out: shrunken log2 fold change. Entry: RRIRTRPPRLPRPRPRPGFFPRP
OUTPUT: 0.147

INPUT: Requested read-out: shrunken log2 fold change. Entry: RRIRVRPPRLPRPRPRPMGKPRP
OUTPUT: -0.0406

INPUT: Requested read-out: shrunken log2 fold change. Entry: RRIRPRPPRLPRPRPRPQGKPRP
OUTPUT: -0.198

INPUT: Requested read-out: shrunken log2 fold change. Entry: RRIRQRPPRLPRPRPRPDGIPRP
OUTPUT: 0.087

INPUT: Requested read-out: shrunken log2 fold change. Entry: RRIRVRPPRLPRPRPRPHCQPRP
OUTPUT: -0.401

INPUT: Requested read-out: shrunken log2 fold change. Entry: RRIRHRPPRLPRPRPRPLHMPRP
OUTPUT: -0.0732

INPUT: Requested read-out: shrunken log2 fold change. Entry: RRIRDRPPRLPRPRPRPNNKPRP
OUTPUT: -0.682

INPUT: Requested read-out: shrunken log2 fold change. Entry: RRIRWRPPRLPRPRPRPVIYPRP
OUTPUT: -0.279

INPUT: Requested read-out: shrunken log2 fold change. Entry: RRIRGRPPRLPRPRPRPHWQPRP
OUTPUT: 0.258

INPUT: Requested read-out: shrunken log2 fold change. Entry: RRIRDRPPRLPRPRPRPKWHPRP
OUTPUT: 0.179

INPUT: Requested read-out: shrunken log2 fold change. Entry: RRIRDRPPRLPRPRPRPPMVPRP
OUTPUT: 0.207

INPUT: Requested read-out: shrunken log2 fold change. Entry: RRIRKRPPRLPRPRPRPCRNPRP
OUTPUT: -0.0611

INPUT: Requested read-out: shrunken log2 fold change. Entry: RRIRDRPPRLPRPRPRPTRRPRP
OUTPUT: 0.206

INPUT: Requested read-out: shrunken log2 fold change. Entry: RRIRTRPPRLPRPRPRPPNYPRP
OUTPUT: -0.101

INPUT: Requested read-out: shrunken log2 fold change. Entry: RRIRWRPPRLPRPRPRPENDPRP
OUTPUT: -0.0396

INPUT: Requested read-out: shrunken log2 fold change. Entry: RRIRCRPPRLPRPRPRPDYRPRP
OUTPUT: -0.0343

INPUT: Requested read-out: shrunken log2 fold change. Entry: RRIRWRPPRLPRPRPRPKLCPRP
OUTPUT: 0.0167

INPUT: Requested read-out: shrunken log2 fold change. Entry: RRIRMRPPRLPRPRPRPNDGPRP
OUTPUT: -0.0703

INPUT: Requested read-out: shrunken log2 fold change. Entry: RRIRNRPPRLPRPRPRPIACPRP
OUTPUT: -0.00434

INPUT: Requested read-out: shrunken log2 fold change. Entry: RRIRPRPPRLPRPRPRPMHEPRP
OUTPUT: 0.297

INPUT: Requested read-out: shrunken log2 fold change. Entry: RRIRFRPPRLPRPRPRPKMFPRP
OUTPUT: -0.323

INPUT: Requested read-out: shrunken log2 fold change. Entry: RRIRWRPPRLPRPRPRPEVRPRP
OUTPUT: 0.495

INPUT: Requested read-out: shrunken log2 fold change. Entry: RRIRPRPPRLPRPRPRPVWEPRP
OUTPUT: -0.126

INPUT: Requested read-out: shrunken log2 fold change. Entry: RRIRTRPPRLPRPRPRPNTYPRP
OUTPUT: -0.614

INPUT: Requested read-out: shrunken log2 fold change. Entry: RRIRNRPPRLPRPRPRPKYRPRP
OUTPUT: -0.0413

INPUT: Requested read-out: shrunken log2 fold change. Entry: RRIRHRPPRLPRPRPRPFPSPRP
OUTPUT: 0.0517

INPUT: Requested read-out: shrunken log2 fold change. Entry: RRIRIRPPRLPRPRPRPHYKPRP
OUTPUT: -0.756

INPUT: Requested read-out: shrunken log2 fold change. Entry: RRIRPRPPRLPRPRPRPGWWPRP
OUTPUT: 0.356

INPUT: Requested read-out: shrunken log2 fold change. Entry: RRIRYRPPRLPRPRPRPSEYPRP
OUTPUT: -0.431

INPUT: Requested read-out: shrunken log2 fold change. Entry: RRIRKRPPRLPRPRPRPCPGPRP
OUTPUT: -0.251

INPUT: Requested read-out: shrunken log2 fold change. Entry: RRIRCRPPRLPRPRPRPPMIPRP
OUTPUT: -0.0902

INPUT: Requested read-out: shrunken log2 fold change. Entry: RRIRLRPPRLPRPRPRPFLPPRP
OUTPUT: -0.171

INPUT: Requested read-out: shrunken log2 fold change. Entry: RRIRHRPPRLPRPRPRPSWQPRP
OUTPUT: 0.0601

INPUT: Requested read-out: shrunken log2 fold change. Entry: RRIRQRPPRLPRPRPRPNEPPRP
OUTPUT: -0.0605

INPUT: Requested read-out: shrunken log2 fold change. Entry: RRIRPRPPRLPRPRPRPACDPRP
OUTPUT: 0.00904

INPUT: Requested read-out: shrunken log2 fold change. Entry: RRIRHRPPRLPRPRPRPPCLPRP
OUTPUT: -0.0439

INPUT: Requested read-out: shrunken log2 fold change. Entry: RRIRRRPPRLPRPRPRPTVGPRP
OUTPUT: 0.0232

INPUT: Requested read-out: shrunken log2 fold change. Entry: RRIRCRPPRLPRPRPRPNTVPRP
OUTPUT: -0.768

INPUT: Requested read-out: shrunken log2 fold change. Entry: RRIRSRPPRLPRPRPRPPCGPRP
OUTPUT: 0.182

INPUT: Requested read-out: shrunken log2 fold change. Entry: RRIRSRPPRLPRPRPRPYMYPRP
OUTPUT: -0.466

INPUT: Requested read-out: shrunken log2 fold change. Entry: RRIRQRPPRLPRPRPRPKPRPRP
OUTPUT: 0.309

INPUT: Requested read-out: shrunken log2 fold change. Entry: RRIRTRPPRLPRPRPRPHAPPRP
OUTPUT: -0.046

INPUT: Requested read-out: shrunken log2 fold change. Entry: RRIRERPPRLPRPRPRPAIWPRP
OUTPUT: 0.129

INPUT: Requested read-out: shrunken log2 fold change. Entry: RRIRDRPPRLPRPRPRPHMTPRP
OUTPUT: -0.0927

INPUT: Requested read-out: shrunken log2 fold change. Entry: RRIRFRPPRLPRPRPRPSQQPRP
OUTPUT: -0.277

INPUT: Requested read-out: shrunken log2 fold change. Entry: RRIRDRPPRLPRPRPRPCLTPRP
OUTPUT: 0.0157

INPUT: Requested read-out: shrunken log2 fold change. Entry: RRIRHRPPRLPRPRPRPCLKPRP
OUTPUT: -0.16
